Observed IC50 for HDAC1 (Homo sapiens (Human)), reported per entry below.
measured.property: IC50 (nM)

O=C(NO)c1cnc(NC2(c3ccccc3)CCN(S(=O)(=O)c3cccc(F)c3)CC2)nc1 = 551

A: CC(C)C1(Nc2ncc(C(=O)NO)cn2)CCN(C(=O)OCc2ccccc2)CC1
B: O=C(NO)c1cnc(NC2(c3ccccc3)CCN(C(=O)Cc3cc4ccccc4[nH]3)CC2)nc1
Which record shows the lower IC50: the first, A , or the second, B ? Mark your selection by writing its label. B
(B: 10 nM, A: 119 nM)

A: O=C(NO)c1cnc(NC2(c3ccccc3)CCN(C(=O)Nc3cccc(F)c3)CC2)nc1
B: O=C(NO)c1cnc(NC2(c3ccccc3)CCN(S(=O)(=O)c3ccc(Cl)cc3)CC2)nc1
# returns the entry with the larger IC50; inputs A and B To answer, give the label that identifies your chosen option. B
(B: 854 nM, A: 50 nM)

###

study.target: HDAC3 (Homo sapiens (Human))
Sequence (O15379 whole entry): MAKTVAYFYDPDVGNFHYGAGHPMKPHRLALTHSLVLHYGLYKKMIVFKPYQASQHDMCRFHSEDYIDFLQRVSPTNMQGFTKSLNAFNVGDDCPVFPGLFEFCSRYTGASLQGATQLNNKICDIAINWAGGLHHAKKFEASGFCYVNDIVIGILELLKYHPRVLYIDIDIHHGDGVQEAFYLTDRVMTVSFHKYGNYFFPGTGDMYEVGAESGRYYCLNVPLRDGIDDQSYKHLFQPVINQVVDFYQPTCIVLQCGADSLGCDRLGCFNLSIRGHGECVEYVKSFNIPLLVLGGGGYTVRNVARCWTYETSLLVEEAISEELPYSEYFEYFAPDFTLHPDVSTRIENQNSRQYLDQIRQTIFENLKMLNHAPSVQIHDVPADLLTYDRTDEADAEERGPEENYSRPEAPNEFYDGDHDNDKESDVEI
Sequence (Q9Y618 395-489 partner): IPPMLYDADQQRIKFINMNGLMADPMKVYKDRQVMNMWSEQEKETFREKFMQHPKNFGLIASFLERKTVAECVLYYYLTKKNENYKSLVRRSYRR
measured.property: IC50 (nM)

Solved entries (count: 5):
CC(=O)N1CCC(Nc2ncc(C(=O)NO)cn2)(c2ccccc2)CC1 = 840
O=C(NO)c1cnc(NC2(c3ccccc3)CCN(C(=O)Nc3cccc(F)c3)CC2)nc1 = 1080
O=C(NO)c1cnc(NC2(c3ccccc3)CCN(S(=O)(=O)c3ccc(C(F)(F)F)cc3)CC2)nc1 = 2700
CNC(=O)N1CCC(Nc2ncc(C(=O)NO)cn2)(c2ccccc2)CC1 = 987
CC(C)C[C@H](C(=O)N1CCC(Nc2ncc(C(=O)NO)cn2)(c2ccccc2)CC1)c1ccccc1 (stereo in doubt) = 914

1: C[C@@H](C(=O)N1CCC(C)(Nc2ncc(C(=O)NO)cn2)CC1)c1ccccc1
2: O=C(NO)c1cnc(NC2(c3ccccc3)CCN(C(=O)Nc3ccccc3)CC2)nc1
// task: argmin of IC50 over [ 1 , 2 ] Write the label of whichever entry you select. 1

###

A short record of IC50 observed with HDAC2 (Homo sapiens (Human), UniProt Q92769) follows.
Sequence (Q92769 whole entry): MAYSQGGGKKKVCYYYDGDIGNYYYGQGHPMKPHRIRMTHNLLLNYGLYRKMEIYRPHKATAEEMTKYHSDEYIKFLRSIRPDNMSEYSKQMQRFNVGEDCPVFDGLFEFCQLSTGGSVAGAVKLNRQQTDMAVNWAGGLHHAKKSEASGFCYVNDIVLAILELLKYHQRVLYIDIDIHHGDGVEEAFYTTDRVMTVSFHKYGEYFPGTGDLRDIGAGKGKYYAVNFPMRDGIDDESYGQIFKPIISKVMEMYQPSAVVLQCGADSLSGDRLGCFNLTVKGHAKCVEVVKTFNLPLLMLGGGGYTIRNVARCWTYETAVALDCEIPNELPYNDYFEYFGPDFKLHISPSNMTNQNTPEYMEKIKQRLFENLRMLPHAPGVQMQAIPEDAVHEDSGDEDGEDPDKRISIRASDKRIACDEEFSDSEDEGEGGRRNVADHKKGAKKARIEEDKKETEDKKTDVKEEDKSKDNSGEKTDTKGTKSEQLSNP
measured.property: IC50 (µM)

# example entries with known answers
O=C(NO)c1cnc(NC2(c3ccccc3)CCN(C(=S)Nc3ccccc3)CC2)nc1 = 0.0052
O=C(NO)c1cnc(NC2(c3ccccc3)CCN(S(=O)(=O)c3ccc(Cl)cc3)CC2)nc1 = 0.987
O=C(NO)c1cnc(NC2(c3ccccc3)CCN(C(=O)Nc3ccccc3F)CC2)nc1 = 0.027
Cc1ccc(NC(=O)N2CCC(Nc3ncc(C(=O)NO)cn3)(c3ccccc3)CC2)cc1 = 0.046
CCOC(=O)N1CCC(Nc2ncc(C(=O)NO)cn2)(c2ccccc2)CC1 = 0.321
CCOC(=O)N1CCC(Nc2ncc(C(=O)NO)cn2)(C(C)C)CC1 = 0.809
CNC(=O)N1CCC(Nc2ncc(C(=O)NO)cn2)(c2ccccc2)CC1 = 0.207
CC(C)[C@@H](C(=O)N1CCC(Nc2ncc(C(=O)NO)cn2)(c2ccccc2)CC1)c1ccccc1 (stereo in doubt) = 0.018
C[C@@H](C(=O)N1CCC(C)(Nc2ncc(C(=O)NO)cn2)CC1)c1ccccc1 = 0.103
O=C(NO)c1cnc(NC2(c3ccccc3)CCN(S(=O)(=O)c3cccc(F)c3)CC2)nc1 = 0.644

P: O=C(NO)c1cnc(NC2(c3ccccc3)CCN(c3ccccc3)CC2)nc1
Q: O=C(NO)c1cnc(NC2(c3ccccc3)CCN(S(=O)(=O)c3ccccc3)CC2)nc1
R: Nc1ccc(-c2cccs2)cc1NC(=O)c1ccc2c(c1)cc(C1CC1)n2CCN1CCOCC1
S: CC(C)C[C@@H](C(=O)N1CCC(Nc2ncc(C(=O)NO)cn2)(c2ccccc2)CC1)c1ccccc1 (stereo in doubt)
List from greatest to least IC50. When ranking, write the labels in the order the request describes. Q, P, R, S
(Q: 0.829 µM, P: 0.38 µM, R: 0.036 µM, S: 0.022 µM)

The measured values listed here are drawn from patent US9278963B2.
